compounds and their reported IC50
test system: HIV-1 (MT-2 cells); experiment: Anti-HIV MTT assay, inhibition of HIV-induced cell killing, MT-2 cells; assay type: cell-based, HIV-1 isolates IIIB and/or RF; details: Human immunodeficiency virus 1, MT2, 144 h; MT-2 cells (second position), 6 days, 37° C., MTT; read-out: Viral MT-2
quantity name: IC50

- compound: "CCC1(N(CCO)C(=O)c2ccccc2CCC(O)Cc2ccc(C)cc2C(=O)N(CCO)C(C)(C)c2ccc(OCCCN(CCO)CCO)cc2)CCCC1 (stereo not shown) [Example 113]"
  recorded measurement: "1.58 µg/mL"
- compound: "CCC1(N(CCO)C(=O)c2ccccc2CCC(O)Cc2ccccc2C(=O)N(CCO)C23CCCCC2CCCC3)CCCC1 (stereo not shown) [Example 97]"
  recorded measurement: "> 10 µg/mL"
- compound: "CC(C)(C)N(CCO)C(=O)c1ccccc1CCC(O)Cc1ccccc1C(=O)N(CCO)C(C)(C)c1ccncc1 (stereo not shown) [Example 77]"
  recorded measurement: "16.4 µg/mL"
- compound: "CCC1(N(CCO)C(=O)c2ccccc2CC[C@@H](O)Cc2ccc(C)cc2C(=O)N(CCO)C(C)(C)c2ccccc2)CCCC1 [Example 112]"
  recorded measurement: "1.47 µg/mL"

====

molecular target: HIV-1 protease (Human immunodeficiency virus type 1 group M subtype B, UniProt P04585); construct: purified HIV-1 protease; test: biochemical; type: biochemical; conditions: 0.5M NaCl, 50 mM MES pH 5.6, 2% DMSO, 37° C., 200 μM substrate
pIC50: −log10 of the molar value.
compounds and their reported pIC50
quantity name: pIC50

- compound: "CC(C)(C)NC(=O)c1ccccc1CC(O)C(O)Cc1ccccc1C(=O)NC(C)(C)C (stereo not drawn)"
  quantity name: "pIC50"
  qualifying sign: "="
  recorded measurement: 4.19
- compound: "CCNC(=O)c1ccccc1CC(O)CSc1ccccc1C(=O)NCCN(C)C (stereo not drawn)"
  quantity name: "pIC50"
  qualifying sign: "<"
  recorded measurement: 3.30
- compound: "CC(C)(C)N(CCO)C(=O)c1ccccc1CCC(O)Cc1ccccc1C(=O)N(CCOCc1ccccc1)C(C)(C)c1ccncc1 (stereo not drawn)"
  quantity name: "pIC50"
  qualifying sign: "="
  recorded measurement: 5.76
- compound: "CC(C)(C)N(CCO)C(=O)c1ccccc1CCC(O)C(F)c1ccccc1C(=O)N(CCO)C(C)(C)c1ccccc1 (stereo not drawn)"
  quantity name: "pIC50"
  qualifying sign: "="
  recorded measurement: 5.89
- compound: "CCC1(N(CCO)C(=O)c2ccccc2CCC(O)Cc2ccc(C)cc2C(=O)N(CCO)C2(c3ccccc3)CCCC2)CCCC1 (stereo not drawn)"
  quantity name: "pIC50"
  qualifying sign: "="
  recorded measurement: 6.85
- compound: "CCC1(N(CCO)C(=O)c2ccccc2CCC(O)Cc2ccc(C)cc2C(=O)N(CCO)C(C)(C)c2ccc(OCCCN(CCO)CCO)cc2)CCCC1 (stereo not drawn)"
  quantity name: "pIC50"
  qualifying sign: "="
  recorded measurement: 6.99
- compound: "CC(C)(C)N(CCO)C(=O)c1ccccc1CC(O)C(O)Cc1ccccc1C(=O)N(CCO)C(C)(C)C (stereo not drawn)"
  quantity name: "pIC50"
  qualifying sign: "="
  recorded measurement: 5.02
- compound: "CCCC(CC)(CC)N(CCO)C(=O)c1ccccc1CC(O)CCc1ccccc1C(=O)N(CCO)C(C)(C)C (stereo not drawn)"
  quantity name: "pIC50"
  qualifying sign: "="
  recorded measurement: 6.74
- compound: "CC(C)(C)N(CCO)C(=O)c1ccccc1CCC(O)Cc1ccccc1C(=O)N(CCO)C(C)(C)c1ccccc1 (stereo not drawn)"
  quantity name: "pIC50"
  qualifying sign: "="
  recorded measurement: 6.56
- compound: "Cc1ccc(CC(O)CCc2ccccc2C(=O)N(CCO)C(C)(C)c2ccccc2)c(C(=O)N(CCO)C(C)(C)c2ccccc2)c1 (stereo not drawn)"
  quantity name: "pIC50"
  qualifying sign: "="
  recorded measurement: 7.05
- compound: "CC(C)(C)NC(=O)c1ccccc1CC(O)CSc1ccc(NCc2ccncc2)cc1C(=O)NC(C)(C)C (stereo not drawn)"
  quantity name: "pIC50"
  qualifying sign: "="
  recorded measurement: 3.70
- compound: "Cc1cc(CC(O)CCc2ccccc2C(=O)N(CCO)C(C)(C)C)c(C(=O)N(CCO)C(C)(C)c2ccccc2)cc1C (stereo not drawn)"
  quantity name: "pIC50"
  qualifying sign: "="
  recorded measurement: 6.70
- compound: "CN(C)CCNC(=O)c1ccccc1CC(O)CSc1ccccc1C(=O)NCCN(C)C (stereo not drawn)"
  quantity name: "pIC50"
  qualifying sign: "<"
  recorded measurement: 3.30
- compound: "CC(C)(C)NC(=O)c1ccccc1SCC(O)c1ccccc1C(=O)NC(C)(C)C (stereo not drawn)"
  quantity name: "pIC50"
  qualifying sign: "<"
  recorded measurement: 3.70
